pest or weed control at 500 g/ha values for the molecules below.
- Tested on: Euphorbia heterophylla (EPHHL)
- test_protocol: Post-emergence efficacy, Method A
- Type: in vivo
- test_parameters: Euphorbia heterophylla, post-emergence, 312 h; Application Rate 500 g/Ha; evaluated after 13 days; Method A; read-out: Control of weed species after post-emergence application, EPHHL (100=total damage to plant; 0=no damage to plant)

{"cpd_smiles": "Nc1cc(-c2cc[n+](CCC(=O)O)nc2)nc(N)n1", "pest or weed control at 500 g/ha": "30%"}
{"cpd_smiles": "O=C(O)CC[n+]1ccc(-c2ccc(C(F)(F)F)cn2)cn1", "pest or weed control at 500 g/ha": "70%"}
{"cpd_smiles": "O=c1[nH]c(-c2cc[n+](CCCS(=O)(=O)[O-])nc2)ncc1Cl", "pest or weed control at 500 g/ha": "40%"}
{"cpd_smiles": "Cc1cnc(-c2cc[n+](CCC(=O)O)nc2)c(C)c1", "pest or weed control at 500 g/ha": "30%"}
{"cpd_smiles": "Cc1cc(F)cnc1-c1cc[n+](CCCS(=O)(=O)[O-])nc1", "pest or weed control at 500 g/ha": "30%"}
{"cpd_smiles": "Nc1cc(-c2cc[n+](CCC(=O)O)nc2)ncn1", "pest or weed control at 500 g/ha": "50%"}
{"cpd_smiles": "CCOP(=O)(CCC[n+]1ccc(-c2ncccn2)cn1)OCC", "pest or weed control at 500 g/ha": "0%"}
{"cpd_smiles": "CO[N-]C(=O)C[n+]1ccc(-c2ncccn2)cn1", "pest or weed control at 500 g/ha": "90%"}
{"cpd_smiles": "Nc1nccc(-c2cc[n+](CCC(=O)O)nc2)n1", "pest or weed control at 500 g/ha": "90%"}
